studySystem: PD-1/PD-L1 protein/protein interaction (recombinant human PD-L1 protein (19-238), recombinant human PD-1 protein (25-167)) (Homo sapiens, UniProt Q9NZQ7)
Construct: Recombinant human PD-L1 protein (19-238) with a His-tag at the C-terminus; PD1-H5257 (PD-1-Fc)
Sequence (Q9NZQ7 19-238): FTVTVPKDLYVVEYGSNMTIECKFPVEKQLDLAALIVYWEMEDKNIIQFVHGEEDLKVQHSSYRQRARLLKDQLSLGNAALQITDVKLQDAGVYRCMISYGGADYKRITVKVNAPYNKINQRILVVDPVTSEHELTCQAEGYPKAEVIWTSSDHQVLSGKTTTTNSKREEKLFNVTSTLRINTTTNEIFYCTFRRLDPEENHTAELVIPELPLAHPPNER
testName: PD-1/PD-L1 Homogeneous Time-Resolved Fluorescence (HTRF) Binding Assay
experimentalConditions: 25° C., PBS buffer (pH 7.4), 40 minutes preincubation with inhibitors

{"molecule": "Cc1c(Nc2nccc3cc(CN4CC[C@H](O)C4)cnc23)cccc1-c1cccc(Nc2nccc3cc(CN4CC[C@@H](C(=O)O)C4)cnc23)c1C", "IC50": "≤ 10 nM"}
{"molecule": "Cc1c(NC(=O)c2nc3c(n2C)CCN(C2CCC(C)(C(=O)O)CC2)C3)cccc1-c1cccc(Nc2nccc3cc(CN4CC[C@@H](O)C4)cnc23)c1C (single isomer, unassigned) [Example 62-peak1]", "IC50": "≤ 10 nM"}
{"molecule": "Cc1c(Nc2nccc3cc(CN4CC[C@@H](O)C4)cnc23)cccc1-c1cccc(NC(=O)c2cc(CN3CC[C@@H](C(=O)O)C3)cn(C)c2=O)c1Cl", "IC50": "≤ 10 nM"}
